Listed here: items and their measured IC50.
- systemName: TIE2 intracellular domain/c-fms extracellular domain (TIE2/c-fms) chimeric protein expressing mouse 3T3 cells (Homo sapiens)
- Construct: a TIE2 intracellular domain/c-fms extracellular domain (TIE2/c-fms) chimeric protein
- Sequence (Q02763 770-1124 limits assumed, change not shown): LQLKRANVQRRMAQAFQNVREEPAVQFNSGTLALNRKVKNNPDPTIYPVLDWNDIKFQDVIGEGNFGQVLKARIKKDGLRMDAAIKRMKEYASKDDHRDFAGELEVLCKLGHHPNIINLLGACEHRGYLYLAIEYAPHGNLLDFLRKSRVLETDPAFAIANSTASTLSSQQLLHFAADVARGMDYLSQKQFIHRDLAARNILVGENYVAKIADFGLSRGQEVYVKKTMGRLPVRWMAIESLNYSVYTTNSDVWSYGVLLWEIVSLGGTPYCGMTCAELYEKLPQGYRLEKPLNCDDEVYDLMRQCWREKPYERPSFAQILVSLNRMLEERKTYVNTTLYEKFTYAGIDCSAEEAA
- testDescription: TIE-2 autophosphorylation assay (TIE2-C), ELISA
- measurementSetup: TIE2/c-fms 3T3 cells, MCSF activation
Structures can show the parent of a compound that is named as a salt.

Noted for `O=C(Nc1ccc(Oc2ccc3[nH]c(NC(=O)C4CCCC4)nc3c2)cc1)Nc1cc(C(F)(F)F)ccc1F` : its IC50 reads 100 to 1000 nM

Noted for `CC(C)CCC(=O)Nc1nc2cc(Oc3ccc(NC(=O)Nc4cc(C(F)(F)F)ccc4F)cc3)ccc2[nH]1` : its IC50 reads < 100 nM

Noted for `O=C(Nc1ccc(Oc2ccc3nc(NC(=O)c4cccs4)[nH]c3c2)cc1)Nc1cc(C(F)(F)F)ccc1F` : its IC50 reads < 100 nM

Noted for `COC(=O)Nc1nc2cc(Oc3ccc(NC(=O)Nc4cccc(C#N)c4)cc3)ccc2[nH]1` : its IC50 reads 100 to 1000 nM

Noted for `COC(=O)Nc1nc2cc(S(=O)(=O)c3ccc(NC(=O)Nc4cc(C(F)(F)F)ccc4F)cc3)ccc2[nH]1` : its IC50 reads < 100 nM

Noted for `O=C(Nc1ccc(Oc2ccc3nc(NC(=O)c4c[nH]c5ccccc45)[nH]c3c2)cc1)Nc1cc(C(F)(F)F)ccc1F` : its IC50 reads 100 to 1000 nM

Noted for COC(=O)Nc1nc2cc(Oc3ccc(NC(=O)Nc4cc(C)ccc4F)cc3)ccc2[nH]1.Cl [Example 55, hydrochloride] : its IC50 reads < 100 nM

Noted for COC(=O)Nc1nc2ccc(Oc3cccc(NC(=O)Nc4cc(C(F)(F)F)ccc4Cl)c3)cc2[nH]1 [Example 52, hydrochloride] : its IC50 reads 100 to 1000 nM

Noted for COC(=O)Nc1nc2ncc(Oc3ccc(NC(=O)Nc4cc(C(F)(F)F)ccc4Cl)cc3)cc2[nH]1 [Example 73, dihydrochloride] : its IC50 reads 100 to 1000 nM

Noted for `Nc1nc2ccc(Oc3ccc(NC(=O)Nc4cc(C(F)(F)F)ccc4F)cc3)cc2[nH]1` : its IC50 reads 1000 to 10000 nM

Noted for `CN1CCN(Cc2ccc(C(=O)Nc3nc4cc(Oc5ccc(NC(=O)Nc6cc(C(F)(F)F)ccc6F)cc5)ccc4[nH]3)cc2)CC1` : its IC50 reads < 100 nM

Noted for `O=C(Nc1ccc(Oc2ccc3[nH]c(NC(=O)c4ccc(-n5ccnc5)cc4)nc3c2)cc1)Nc1cc(C(F)(F)F)ccc1F` : its IC50 reads < 100 nM

Noted for `COC(=O)Nc1nc2ccc(Oc3ccc(NC(=S)Nc4cccc(C(F)(F)F)c4)cc3)cc2[nH]1` : its IC50 reads 100 to 1000 nM

Noted for O=C(Nc1ccc(Oc2ccc3[nH]c(NC(=O)C4CCCO4)nc3c2)cc1)Nc1cc(C(F)(F)F)ccc1F (centres unmarked) : its IC50 reads < 100 nM
